Task for the reader: assign each of the following compounds its reported IC50.
# Test system: HeLa
# test.protocol: Cytotoxicity against human HeLa cells after 4 days by Coulter counter analysis
# Assay type: functional, cell-based
# applied.conditions: 96 h

1. Nc1cccc(/C=C2\SC(=O)N(Cc3cccc(F)c3)C2=O)c1; > 250 µM

The following compounds each have a reported value; give each one's IC50.
1. Nc1cccc(/C=C2\SC(=O)N(Cc3cccc(Cl)c3)C2=O)c1
2. C=C(Br)C(=O)Nc1cccc(/C=C2\SC(=O)N(Cc3ccc(C)cc3)C2=O)c1

## Result
1. 250 µM
2. 1.2 µM

The following compounds each have a reported value; give each one's IC50.
1. C=C(Br)C(=O)Nc1cccc(/C=C2\SC(=O)N(Cc3ccc(Cl)cc3)C2=O)c1
2. Nc1cccc(/C=C2\SC(=O)N(Cc3ccc(Cl)cc3)C2=O)c1
3. Nc1cccc(/C=C2\SC(=O)N(Cc3ccccc3)C2=O)c1
4. C=C(Br)C(=O)Nc1cccc(/C=C2\SC(=O)N(Cc3ccc(C(F)(F)F)cc3)C2=O)c1
5. C=C(Br)C(=O)Nc1ccc(/C=C2\SC(=O)N(Cc3ccccc3)C2=O)cc1
6. C=C(Br)C(=O)Nc1ccc(/C=C2\SC(=O)N(C)C2=O)cc1

## Result
2.7 µM
> 250 µM
> 250 µM
0.82 µM
1 µM
0.87 µM

The following compounds each have a reported value; give each one's IC50.
1. Cc1ccc(CN2C(=O)S/C(=C\c3cccc(N)c3)C2=O)cc1
2. Nc1ccc(/C=C2\SC(=O)N(Cc3ccc(C(F)(F)F)cc3)C2=O)cc1
3. Nc1cccc(/C=C2\SC(=O)N(Cc3ccc(C(F)(F)F)cc3)C2=O)c1
4. C=C(Br)C(=O)Nc1ccc(/C=C2\SC(=O)N(Cc3cccc(Cl)c3)C2=O)cc1

## Result
1: 98 µM; 2: 96 µM; 3: > 250 µM; 4: 8.9 µM

The following compounds each have a reported value; give each one's IC50.
1. CN1C(=O)S/C(=C\c2ccc(N)cc2)C1=O
2. Nc1cccc(/C=C2\SC(=O)N(CCc3ccccc3)C2=O)c1
3. Nc1ccc(/C=C2\SC(=O)N(Cc3cccc(F)c3)C2=O)cc1
4. C=C(Br)C(=O)Nc1cccc(/C=C2\SC(=O)N(Cc3ccc(F)cc3)C2=O)c1
5. Cc1ccc(CN2C(=O)S/C(=C\c3ccc(N)cc3)C2=O)cc1

## Result
97 µM
250 µM
250 µM
0.8 µM
> 250 µM
